- SYSTEM_NAME: Adenosine receptor A1 (Homo sapiens)
- Sequence (P30542 whole entry): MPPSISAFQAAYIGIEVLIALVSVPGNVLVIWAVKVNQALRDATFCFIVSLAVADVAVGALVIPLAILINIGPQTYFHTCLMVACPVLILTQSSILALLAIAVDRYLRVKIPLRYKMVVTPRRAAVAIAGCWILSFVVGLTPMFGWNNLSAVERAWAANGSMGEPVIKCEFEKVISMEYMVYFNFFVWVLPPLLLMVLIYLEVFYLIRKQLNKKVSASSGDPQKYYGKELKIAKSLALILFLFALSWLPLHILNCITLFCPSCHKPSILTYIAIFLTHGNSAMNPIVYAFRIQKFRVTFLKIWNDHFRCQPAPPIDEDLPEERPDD
Here is a set of compounds with reported Ki for Adenosine receptor A1 (Homo sapiens), compiled from the literature.
Answers are plain numbers, in nM.

These solved cases illustrate the format of a correct answer.
[[record]]
mol = "COc1cc(-c2nc3c([nH]2)C2=N[C@H](C)CN2C(=O)N3Cc2ccccc2)n(C)n1"
test_value = 2550

[[record]]
mol = "Nc1nc(NCc2ccccc2)nc2sc(-c3ccco3)nc12"
test_value = 45

[[record]]
mol = "CCn1c(=O)c2[nH]c(-c3cnn(Cc4ccccc4)c3)nc2n(CC)c1=O"
test_value = 580


Then this compound:
What value of measured Ki is listed for CCOC(=O)c1cnc(NCC2CCCCC2)n2nc(-c3ccco3)nc12 ?
432
